measured_on: human DAT (Homo sapiens)
Construct: expressed in transfected cells
experimental_details: Competitive binding in transfected cell lines, [3H]WIN 35428
quantity: pKi
Give only the number. pKi is defined as minus log10 of concentration in molar units.

COC(=O)[C@H]1[C@@H](c2ccc(Cl)cc2)C[C@@H]2CC[C@H]1N2C/C=C/I [MMG/142, IPT, reference compound] ... 8.94

Moving on to the next compound.
Q: Please report the measured pKi for "COC(=O)[C@H]1[C@@H](c2ccc(I)cc2)C[C@@H]2CC[C@H]1N2C/C=C/CF"
Ans: 9.77

* * *

measured_on: human DAT (Homo sapiens, UniProt Q01959)
Construct: expressed in transfected cells
Sequence (Q01959 whole entry): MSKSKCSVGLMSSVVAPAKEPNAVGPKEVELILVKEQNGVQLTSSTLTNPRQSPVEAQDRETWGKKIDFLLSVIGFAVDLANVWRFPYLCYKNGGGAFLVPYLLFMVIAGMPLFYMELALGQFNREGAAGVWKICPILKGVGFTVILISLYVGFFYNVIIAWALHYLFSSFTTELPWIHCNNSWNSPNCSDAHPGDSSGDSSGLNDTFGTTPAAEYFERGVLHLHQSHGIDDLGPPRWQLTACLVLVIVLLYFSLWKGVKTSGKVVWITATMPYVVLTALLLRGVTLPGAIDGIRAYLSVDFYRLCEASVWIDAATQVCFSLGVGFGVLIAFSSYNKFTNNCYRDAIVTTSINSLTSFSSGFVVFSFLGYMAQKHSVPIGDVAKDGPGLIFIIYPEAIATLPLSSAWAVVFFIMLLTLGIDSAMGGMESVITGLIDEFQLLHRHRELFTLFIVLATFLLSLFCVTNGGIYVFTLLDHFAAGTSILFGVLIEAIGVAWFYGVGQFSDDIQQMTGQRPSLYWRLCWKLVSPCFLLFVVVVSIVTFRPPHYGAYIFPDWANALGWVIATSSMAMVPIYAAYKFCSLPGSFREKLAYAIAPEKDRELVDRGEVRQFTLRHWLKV
experimental_details: Competitive binding in transfected cell lines, [3H]WIN 35428
applied_conditions: [3H]WIN 35428 as reference; cells transfected with human DAT; read-out: DAT, Ki
// reported pKi for each item listed
Just so you know, pKi here is -log10 of the concentration in molar units; reply with that number alone.

COC(=O)[C@H]1[C@@H](c2ccc(F)cc2)C[C@@H]2CC[C@H]1N2C/C=C/I [Altropane, reference compound] ... 9.11

// next item, pKi requested
Q: Report pKi, nothing else, for this compound: "COC(=O)[C@H]1[C@@H](c2ccc(F)cc2)C[C@@H]2CC[C@H]1N2C/C=C/CF"
Ans: 8.77

* * *

measured_on: norepinephrine transporter (Homo sapiens, UniProt P23975)
Construct: expressed in transfected cells
Sequence (P23975 whole entry): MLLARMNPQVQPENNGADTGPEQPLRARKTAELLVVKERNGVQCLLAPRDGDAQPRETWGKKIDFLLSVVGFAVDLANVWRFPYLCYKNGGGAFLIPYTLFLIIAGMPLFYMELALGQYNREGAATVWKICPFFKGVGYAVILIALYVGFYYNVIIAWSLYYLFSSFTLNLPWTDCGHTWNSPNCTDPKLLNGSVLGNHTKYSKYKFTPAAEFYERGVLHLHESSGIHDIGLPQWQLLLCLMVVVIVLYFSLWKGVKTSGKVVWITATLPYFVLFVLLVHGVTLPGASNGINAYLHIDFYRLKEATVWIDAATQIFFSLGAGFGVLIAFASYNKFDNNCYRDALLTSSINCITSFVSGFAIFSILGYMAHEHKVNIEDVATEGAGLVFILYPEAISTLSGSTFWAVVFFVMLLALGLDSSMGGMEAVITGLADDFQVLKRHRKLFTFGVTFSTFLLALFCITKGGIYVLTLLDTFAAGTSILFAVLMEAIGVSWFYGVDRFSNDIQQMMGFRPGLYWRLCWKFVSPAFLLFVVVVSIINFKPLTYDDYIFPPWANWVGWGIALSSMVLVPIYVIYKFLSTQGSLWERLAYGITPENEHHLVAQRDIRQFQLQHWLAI
experimental_details: Competitive binding in transfected cell lines, [3H]Nisoxetine
applied_conditions: [3H]Nisoxetine; transfected cell lines; read-out: NET, Ki
quantity: Ki

Q: Give Ki for the following molecule: COC(=O)[C@H]1[C@@H](c2ccc(F)cc2)C[C@@H]2CC[C@H]1N2C/C=C/I [Altropane, reference compound]
Ans: > 10 µM

* * *

Listing: pKi of selected compounds
measured_on: norepinephrine transporter (Homo sapiens)
Construct: expressed in transfected cells
experimental_details: Competitive binding in transfected cell lines, [3H]Nisoxetine
Field pKi (float): negative decimal logarithm of the concentration in molar.

COC(=O)[C@H]1[C@@H](c2ccc(Cl)cc2)C[C@@H]2CC[C@H]1N2C/C=C/I [MMG/142, IPT, reference compound] ... 7.31

API: the following record is the query input.
Q: Given the compound "COC(=O)[C@H]1[C@@H](c2ccc(Br)cc2)C[C@@H]2CC[C@H]1N2C/C=C/CF" , write its reported pKi.
Ans: 7.04
